FYI, the data here is from paper PMC12040169.

experiment description: in vitro
condition notes: human, hela cells, % viability
Entries annotated with measured viability at 28.5 h, 10 µM
Quick reminder: number only, in %, skip the unit.

Brc1ccccc1OCCc1ccccc1
95.4
O=C(O)c1ccc(/C=N/NC(=O)C2COc3ccccc3O2)cc1 (stereo not shown)
100
CCOCCCNC(=O)c1cccc(S(=O)(=O)N2CCCC2)c1
104
Cc1c(CN(Cc2ccc(F)cc2)CC2CCCO2)cnn1C (stereo not shown)
86
CCOC(=O)c1sc(NCCOc2cccc(C)c2)nc1C
85.2
CC(C)NC(=O)C1CCCN(c2nc3ccccc3n2C)C1 (stereo not shown)
109

# input If you can, please state the reported viability at 28.5 h, 10 µM value of C=CCNC(=O)N1CC[C@H]2CC(=O)N(Cc3ccc(OC)cc3)CC[C@H]2C1 .
# output 86.9

# input CC(=O)Nc1ccc(S(=O)(=O)NNC(=O)c2cccc(Cl)c2)cc1 , same question.
# output 89.4

# input COc1cc(OC)nc(CN2CCOC3(CCN(C(=O)OCc4ccccc4)CC3)C2)n1 [CBK161101T] , same question.
# output 96.2

# input O=C(O)C(c1c[nH]c2cc(F)ccc12)N1CCN(CC(=O)N2CCOCC2)CC1 (stereo not shown) , same question.
# output 86.5
